meta.source: patent US20100254975A1

# Lookup of reported fluorescence staining intensity (geometric mean) keyed by entry
# measurementTarget: a4b7(R213S) (human) (UniProt P13612)
# Sequence (P13612 34-1032, chain 1 of 2): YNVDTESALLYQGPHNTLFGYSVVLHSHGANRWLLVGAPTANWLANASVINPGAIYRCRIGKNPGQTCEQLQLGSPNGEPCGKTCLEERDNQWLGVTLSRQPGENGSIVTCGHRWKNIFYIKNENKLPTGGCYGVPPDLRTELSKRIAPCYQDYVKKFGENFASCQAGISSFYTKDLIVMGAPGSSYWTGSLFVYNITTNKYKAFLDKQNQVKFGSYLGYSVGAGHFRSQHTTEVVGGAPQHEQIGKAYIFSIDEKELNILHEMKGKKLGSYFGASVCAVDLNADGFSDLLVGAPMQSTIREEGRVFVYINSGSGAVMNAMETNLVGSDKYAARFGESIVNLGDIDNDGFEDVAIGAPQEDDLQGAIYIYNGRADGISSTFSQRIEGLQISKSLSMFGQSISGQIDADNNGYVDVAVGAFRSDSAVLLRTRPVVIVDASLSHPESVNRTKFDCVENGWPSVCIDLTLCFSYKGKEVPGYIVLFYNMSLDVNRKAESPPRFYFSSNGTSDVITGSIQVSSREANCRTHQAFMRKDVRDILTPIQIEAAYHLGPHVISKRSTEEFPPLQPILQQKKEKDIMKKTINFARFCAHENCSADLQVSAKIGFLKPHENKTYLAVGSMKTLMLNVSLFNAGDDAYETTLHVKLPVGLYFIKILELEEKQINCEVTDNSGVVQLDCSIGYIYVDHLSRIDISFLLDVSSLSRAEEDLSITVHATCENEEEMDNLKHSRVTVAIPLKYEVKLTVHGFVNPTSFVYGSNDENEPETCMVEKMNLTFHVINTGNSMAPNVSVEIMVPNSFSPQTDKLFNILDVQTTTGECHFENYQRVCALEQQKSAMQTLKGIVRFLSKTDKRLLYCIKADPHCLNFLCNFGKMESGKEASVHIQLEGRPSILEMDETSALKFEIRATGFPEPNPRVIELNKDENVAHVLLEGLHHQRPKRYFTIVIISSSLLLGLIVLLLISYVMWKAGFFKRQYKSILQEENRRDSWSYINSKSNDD
# Sequence (P26010 20-798 R213S, chain 2 of 2, further chain): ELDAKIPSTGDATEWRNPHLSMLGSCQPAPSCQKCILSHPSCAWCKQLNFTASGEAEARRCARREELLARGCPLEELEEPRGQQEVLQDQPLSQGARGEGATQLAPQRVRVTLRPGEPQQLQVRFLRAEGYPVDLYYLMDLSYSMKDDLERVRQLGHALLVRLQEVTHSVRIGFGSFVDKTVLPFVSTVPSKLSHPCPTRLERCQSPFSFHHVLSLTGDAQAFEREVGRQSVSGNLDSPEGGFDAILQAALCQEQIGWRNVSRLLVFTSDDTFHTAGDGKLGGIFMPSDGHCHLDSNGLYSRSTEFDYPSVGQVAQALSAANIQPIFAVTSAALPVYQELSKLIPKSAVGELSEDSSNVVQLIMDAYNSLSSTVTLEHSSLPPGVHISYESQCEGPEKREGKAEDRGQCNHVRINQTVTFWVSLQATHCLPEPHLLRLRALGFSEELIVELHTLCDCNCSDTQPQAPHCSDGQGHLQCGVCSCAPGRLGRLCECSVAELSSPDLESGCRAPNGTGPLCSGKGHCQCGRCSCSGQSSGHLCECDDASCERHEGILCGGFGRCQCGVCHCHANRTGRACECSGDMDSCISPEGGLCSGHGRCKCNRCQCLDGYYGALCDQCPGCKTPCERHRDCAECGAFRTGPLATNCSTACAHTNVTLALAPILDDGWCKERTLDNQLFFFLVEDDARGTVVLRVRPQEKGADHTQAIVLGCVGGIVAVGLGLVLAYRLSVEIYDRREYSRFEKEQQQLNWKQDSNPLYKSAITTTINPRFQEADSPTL
# protocolText: FACS on transfected 293 cells, 1 microG/ml, PE anti-human IgG
// return just the number, without any unit appended

Guide cases for fluorescence staining intensity (geometric mean), answers given:
>>> measuredresult("2F12 (antibody, V domains shown, Fully human monoclonal from XenoMouse (human IgG2 or IgG4); kappa light chain; also called 2F12K; 2F12H) VH: QVQLVQSGAEVKKPGASVKVSCKVSGYTVTDLSMHWVRQAPGKGLEWMGGFDPQDGETIYAQKFQGRVTMTEDTSTDTAYMELRSLRSEDTAVYYCTTESSSAWFDPWGQGTLVTVSS VL: DIQMTQSPSSVFASVGDRVTITCRASQGISSWLAWYQQKPGKAPNLLIYGASSLQNGVPLRFSGSGSGTDFTLTISSLQPEDFATYYCQQANSFPWTFGQGTKVEIK")
37
>>> measuredresult("19G6 (antibody, V domains shown, Fully human monoclonal from XenoMouse (human IgG2 or IgG4); kappa light chain; also called 19G6K; 19G6H) VH: QVQLVESGGDLVKPGGSLRLSCAASGFTFSDYYMSWIRQAPGKGLEWISYISSSGSTMYYADSVKGRFTISRVNAKNSLYLQMNSLRAEDTAVYYCARDRSSGLVSFDYWGQGTLVTVSS VL: DIQMTQSPSSLSASVGDRVTISCQASQDINTYLNWYQQKPGKVPKLLIYDASNLETGVPSRFSGSGSGTDFTFTISGLQPEDIATYYCQQFDNLPITFGQGTRLEIK")
46

# fluorescence staining intensity (geometric mean) of 22B2 (antibody, V domains shown, Fully human monoclonal from XenoMouse (human IgG2 or IgG4); kappa light chain; also called 22B2K; 22B2H) VH: EVQLVQSGAEVKEPGESLKISCKGSGYIFTSYWIAWVRQLPGKGLEWMGIIDPNDSDTRYSPSFQGQVTISADKSIHTAYLQWSSLKASDTAMYYCATHRLWLGTLPGGFYIWGQGTMVTVSS VL: DVQMTQSPSSLSASVGDRVTITCQASQDITDYLNWYQQKPGKAPKLLIYDTSNLEAGVPSRFSGSGSGTDFTFTISSLQPEDIATYYCQQYDILPYSFGQGTDLEIK = 58

# fluorescence staining intensity (geometric mean) of 18A11 (antibody, V domains shown, Fully human monoclonal from XenoMouse (human IgG2 or IgG4); kappa light chain; also called 18A11K; 18A11H) VH: QVQLVQSGAEVKKPGASVKVSCKVSGYTLSDLSIHWVRQAPGKGLEWMGGFDPQDGETIYAQKFQGRVTMTEDTSTDTAYMELSSLKSEDTAVYYCATGSSSSWFDPWGQGTLVTVSS VL: DIQMTQSPSSVSASVGDRVTITCRASQGISSWLAWYQQKPGKAPKLLIYGASNLESGVPSRFSGSGSGTDFTLTISSLQPEDFANYYCQQANSFPWTFGQGTKVEIK = 30

# fluorescence staining intensity (geometric mean) of 3A5 (antibody, V domains shown, Fully human monoclonal from XenoMouse (human IgG2 or IgG4); kappa light chain; also called 3A5K; 3A5H) VH: QVQLVQSGAEVKKPGASVKVSCKVSGYTLNDLSMHWVRQAPGKGLEWMGGFDPAEGKIISAQKFQDRVTMTDDTSTDTAYMELSSLRSEDSAVYYCATLDFSSWFDPWGQGTLVTVSS VL: DIQMTQSPSSVSASVGDRVTITCRASQGVISWLAWYQQKPGMAPKLLIYAASILQSGVPSRFSGSGSGTDFTLTISSLQPEDFATYYCQQANSFPWTFGQGTNVEIK = 31
